Measured values drawn from ChEMBL document CHEMBL1201862 for this set.

Target: High affinity choline transporter 1 (Homo sapiens, UniProt Q9GZV3)
Sequence (Q9GZV3 whole entry): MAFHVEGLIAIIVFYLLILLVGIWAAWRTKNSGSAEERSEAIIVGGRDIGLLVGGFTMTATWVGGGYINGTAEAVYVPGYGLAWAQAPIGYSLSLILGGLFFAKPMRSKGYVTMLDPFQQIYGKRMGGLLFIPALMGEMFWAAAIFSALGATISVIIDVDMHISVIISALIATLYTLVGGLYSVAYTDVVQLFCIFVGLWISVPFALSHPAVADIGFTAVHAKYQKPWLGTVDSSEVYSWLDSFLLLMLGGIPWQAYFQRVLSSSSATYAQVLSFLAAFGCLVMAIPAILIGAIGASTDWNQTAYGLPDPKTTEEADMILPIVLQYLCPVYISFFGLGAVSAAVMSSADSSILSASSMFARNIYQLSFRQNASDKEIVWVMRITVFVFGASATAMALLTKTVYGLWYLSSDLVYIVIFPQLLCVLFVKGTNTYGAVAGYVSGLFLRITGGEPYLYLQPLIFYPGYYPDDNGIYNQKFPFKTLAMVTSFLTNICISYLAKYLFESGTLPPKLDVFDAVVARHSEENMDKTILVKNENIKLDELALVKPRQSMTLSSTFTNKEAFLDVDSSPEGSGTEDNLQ
Assay: CHT inhibitors, dose response, cell-based, 5-point CRC, membrane potential dye (AID 504840)
Format: functional
Active and inactive are the calls of the source.
observable: IC50

IN: Param item = COc1cc2c(cc1OC)-c1cc(NC3CCCCCCC3)nc(=O)n1CC2 ; retrieve measured IC50.
OUT: 7.99 µM (active)

IN: Param item = O=C(Nc1nc(-c2ccccc2)cs1)c1ccccc1NS(=O)(=O)c1ccc(F)cc1 ; retrieve measured IC50.
OUT: 13.8 µM (active)

IN: Param item = CCOc1ccc(S(=O)(=O)Nc2cccc(C(=O)NCC(c3ccccc3)N(C)C)c2)cc1 (stereo not given) ; retrieve measured IC50.
OUT: 4.43 µM (active)

IN: Param item = CC(C)(C)S(=O)(=O)/C(C#N)=N/Nc1ccc(Cl)cc1 ; retrieve measured IC50.
OUT: 1.32 µM (active)

IN: Param item = CCOC(=O)c1nc(NNC(=O)c2ccc([N+](=O)[O-])cc2)sc1C ; retrieve measured IC50.
OUT: 9.91 µM (active)

* * *

Assay: Shn3 3'UTR reporter inhibitors, dose response, cell-based, Clone20 osteoblasts, firefly luciferase, cherry-picked (AID 624132);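 note: firefly luciferase luminescence from reporter carrying the Shn3 3'UTR in osteoblasts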
Format: functional
Activity calls are given as the source filed them.
Provide the recorded AC50 for the entries that follow.

IN: Param item = Cc1cc(S(=O)(=O)c2ccc(Cl)cc2)nc(S(=O)(=O)c2ccc(Cl)cc2)c1C#N ; retrieve measured AC50.
OUT: 2.83 µM (active)

IN: Param item = COc1ccc(NC(=O)CSc2ncccc2C(=O)OC(C)C)cc1OC ; retrieve measured AC50.
OUT: 4.1 µM (active)

IN: Param item = COC(=O)c1cn(NC(=O)c2cc([N+](=O)[O-])ccc2F)c(=O)c2ccccc12 ; retrieve measured AC50.
OUT: 2.85 µM (active)

IN: Param item = COc1ccc(-c2nc(NC(=O)C3CC(=O)N(c4ccc5c(c4)OCCO5)C3)sc2C)cc1 (centres undefined) ; retrieve measured AC50.
OUT: 5.24 µM (active)

* * *

Biological target: UniProt:P61088
Sequence (P61088 whole entry): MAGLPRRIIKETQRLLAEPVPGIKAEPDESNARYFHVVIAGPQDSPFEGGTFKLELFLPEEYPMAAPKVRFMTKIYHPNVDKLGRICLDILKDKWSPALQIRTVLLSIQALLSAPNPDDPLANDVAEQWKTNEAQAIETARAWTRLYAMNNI
Format: functional
The source made the active and inactive calls.
Returns: one label drawn from Y for active, N for inactive

IN: Please indicate how the test categorized Cc1ccc(NC(=O)C[n+]2ccn(C3=C([O-])c4ccccc4C3=O)c2)cc1 .
OUT: Y

IN: Please indicate how the test categorized Cc1ccc(C(C(=O)NCC2CCCO2)N(C(=O)c2snc(C(N)=O)c2N)c2ccccc2F)o1 (centres undefined) .
OUT: N

IN: Please indicate how the test categorized N#Cc1ccc(Nc2nc(-c3ccc(O)cc3O)cs2)cc1C(F)(F)F .
OUT: N

IN: Please indicate how the test categorized CCn1c(=O)cc(C(F)(F)F)[nH]c1=S .
OUT: N

IN: Please indicate how the test categorized CCCCCCCCCCCCCCCC[n+]1cccc(C(=O)N(CC)CC)c1 .
OUT: N

IN: Please indicate how the test categorized O=C(CCC1CCCCC1)NCCN1C2=NC[C@H](Cc3ccccc3)N2C[C@H]1Cc1ccc(O)cc1 .
OUT: N

IN: Please indicate how the test categorized O=c1c2cc(Br)ccc2[nH]c(=S)n1-c1ccccc1 .
OUT: N

IN: Please indicate how the test categorized COc1ccc(/C=N\NC(=O)c2sc(N)nc2C)cc1OC .
OUT: Y

IN: Please indicate how the test categorized CCN1CCN(S(=O)(=O)c2ccc(Cl)c(C(=O)N(C)Cc3cccs3)c2)CC1 .
OUT: N
